species: Sus scrofa; experiment: Inhibition of pig brain tubulin polymerization at 10 uM by spectrophotometric analysis
propertyLabel: inhibition (%)

| compound | unitsSymbol | inhibition |
| --- | --- | --- |
| O=C(c1cccc(Br)c1)c1[nH]c2ccccc2c1Nc1nc(N2CCOCC2)ncc1[N+](=O)[O-] | % | 36 |
| O=C(c1ccccc1)c1[nH]c2ccccc2c1Nc1nc(N2CCSCC2)ncc1[N+](=O)[O-] | % | 2 |
| O=C(c1ccc(-c2ccccc2)cc1)c1[nH]c2ccccc2c1Nc1nc(N2CCOCC2)ncc1[N+](=O)[O-] | % | 42 |
| CCOC(=O)n1c(C(=O)c2ccc(OC)cc2)c(Nc2nc(N3CCOCC3)ncc2[N+](=O)[O-])c2ccccc21 | % | 19 |
| O=C(c1cccs1)c1[nH]c2cc(Cl)ccc2c1Nc1nc(N2CCOCC2)ncc1[N+](=O)[O-] | % | 19 |

a = COc1ccc(C(=O)c2[nH]c3ccccc3c2Nc2nc(N3CCOCC3)ncc2[N+](=O)[O-])cc1
b = O=C(c1ccccc1)c1[nH]c2ccccc2c1Nc1nc(N2CCOCC2)ncc1[N+](=O)[O-]
Req: Looking at a and b , which one comes out lower in inhibition terms? Pick one; state its label.
Resp: a
(a: 14%, b: 23%)

1 = CN1CCN(c2ncc([N+](=O)[O-])c(Nc3c(C(=O)c4cccs4)[nH]c4cc(Cl)ccc34)n2)CC1
2 = COc1ccc(C(=O)c2[nH]c3cc(Cl)ccc3c2Nc2nc(N3CCOCC3)ncc2[N+](=O)[O-])cc1
Req: I'm curious whether 1 or 2 has the smaller inhibition number. Which is it? Respond using the label that marks the chosen record.
Resp: 2
(2: 14%, 1: 47%)
